- Protocol Summary: Quantitative High-Throughput drug screen in 47 multiple myeloma cell lines against the NCATS MIPE library collection: H1112_PLB cell viability assay (AID 1918967; note: nearly all actives have a fitted effect of over 30% in size)
- Experimental Conditions: H1112 myeloma cells viability, ATP luminescence, 48 h; series mostly up to 45.8 µM
Results filed as inconclusive are left out. Activity calls are given as the source filed them. Calls come from the whole dose curve; as a rule, active = well fitted cell-killing curve with a large enough effect; inconclusive = small, poorly fitted or top-dose-only effect, or effect the other way; inactive = no such curve, though single readings can be large or run the other way.
Field 'call' accepts active, inactive

Past entries and their recorded results:
O=C(Nc1cn[nH]c1-c1nc2ccc(CN3CCOCC3)cc2[nH]1)NC1CC1    active
O=C(NCCS(=O)(=O)c1ccc(C(F)(F)F)cn1)c1ccc(Cl)cc1    inactive
Fc1cc(-c2cccc3ncc(-c4cnn(C5CCNCC5)c4)nc23)cc(F)c1CN1CCOCC1    active
Nc1nc(Nc2ccc(S(N)(=O)=O)cc2)nn1C(=O)c1c(F)cccc1F    active
CC(C)(C)c1cc(C(C)(C)C)c(NC(=O)c2c[nH]c3ccccc3c2=O)cc1O    inactive

Please let me know the test result on file for C[C@@H]1COC(Nc2ccc3ncnc(Nc4ccc(OCc5nccs5)c(Cl)c4)c3c2)=N1 .
active

Please let me know the test result on file for Cc1cc(Nc2ncnc3ccc(-c4ccc(CNCCS(C)(=O)=O)o4)cc23)ccc1Oc1ccn2ncnc2c1 .
active

----------
- Tested on: HeLa
- Protocol Summary: Primary qHTS to identify gynecologic anti-cancer compounds using libraries of approved drugs and bioactive compounds (AID 1345084); note: nearly all actives have a fitted effect of over 55% in size
- Experimental Conditions: Gynecologic cancer cell panel viability, ATPlite luminescence, 48 h; series mostly up to 57.5 µM
Inconclusive results are not listed. Active and inactive are the calls of the source. The call rests on the fitted dose curve; in most records, active means well fitted cell-killing curve with a large enough effect; inconclusive means small, poorly fitted or top-dose-only effect, or effect the other way; inactive means flat fitted curve, though single readings scatter.
Field 'call' accepts active, inactive

Past entries and their recorded results:
C=CC(=O)Nc1cccc(Oc2nc(Nc3ccc(N4CCN(C)CC4)cc3OC)ncc2Cl)c1    inactive
CCS(=O)(=O)c1cccc(-c2cc(C(=O)NC3CCN(C)CC3)c(C)c3[nH]c4ncc(C)cc4c23)c1    active
COc1cc(Nc2ncc(F)c(Nc3ccc4c(n3)N(COP(=O)(O)O)C(=O)C(C)(C)O4)n2)cc(OC)c1OC    active
CCOc1ccccc1OCCNC(C)Cc1ccc(OC)c(S(N)(=O)=O)c1 (centres undefined)    inactive
Cc1c(Cn2c(C)nc3c(C(=O)O)cc(N4CCOCC4)cc32)cccc1C(F)(F)F    inactive

Now take the following compound into account.
Please let me know the test result on file for O=C(Cc1ccc(-c2ccc(OCCN3CCOCC3)cc2)cn1)NCc1ccccc1 .
active

----------
- Protocol Summary: Quantitative High-Throughput drug screen in 47 multiple myeloma cell lines against the NCATS MIPE library collection: KMS28PE_JCRB cell viability assay (AID 1918983); note: nearly all actives have a fitted effect of over 35% in size
- Experimental Conditions: KMS28PE multiple myeloma viability, CellTiter-Glo ATP, 48 h; series mostly up to 45.8 µM
Results filed as inconclusive are left out. Activity calls are given as the source filed them. The call rests on the fitted dose curve; in most records, active means well fitted cell-killing curve with a large enough effect; inconclusive means small, poorly fitted or top-dose-only effect, or effect the other way; inactive means no such curve, though single readings can be large or run the other way.
Field 'call' accepts True (active), False (inactive)

Past entries and their recorded results:
Nc1ccn([C@@H]2O[C@H](CO)[C@H](O)C2(F)F)c(=O)n1    True
CC[C@@]1(O)C(=O)OCc2c1cc1n(c2=O)Cc2cc3cc(O)ccc3nc2-1    True
O=C1CCC[C@@H]2[C@H]3CCC[N+]4([O-])CCC[C@@H](CN12)[C@@H]34 (stereo not given in full)    False
c1ccc2c(CCNc3ccc(Nc4ccncc4)cc3)c[nH]c2c1    True

Now take the following molecule into account.
Please let me know the test result on file for COc1cc(=C2C=c3ccccc3=N2)[nH]c1=Cc1[nH]c(C)cc1C .
True

Values from PubChem BioAssay (NCATS)
